targetOrTestSystem: Protein cereblon/Cyclic GMP-AMP synthase (Homo sapiens, UniProt Q96SW2+Q8N884)
Sequence (Q8N884 whole entry, looked up): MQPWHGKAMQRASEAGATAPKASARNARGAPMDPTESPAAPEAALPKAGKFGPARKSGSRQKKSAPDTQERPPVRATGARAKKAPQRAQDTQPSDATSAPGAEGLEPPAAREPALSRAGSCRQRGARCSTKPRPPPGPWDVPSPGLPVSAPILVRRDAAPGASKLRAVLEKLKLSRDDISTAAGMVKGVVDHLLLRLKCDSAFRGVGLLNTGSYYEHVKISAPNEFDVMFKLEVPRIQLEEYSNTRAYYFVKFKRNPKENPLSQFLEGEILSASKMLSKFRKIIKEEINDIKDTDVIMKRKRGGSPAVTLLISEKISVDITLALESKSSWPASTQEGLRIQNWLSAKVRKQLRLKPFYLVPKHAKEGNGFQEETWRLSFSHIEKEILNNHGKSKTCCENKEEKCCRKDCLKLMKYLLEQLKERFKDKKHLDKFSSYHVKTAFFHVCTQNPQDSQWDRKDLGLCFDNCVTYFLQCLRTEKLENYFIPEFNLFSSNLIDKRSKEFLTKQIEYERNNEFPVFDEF
Sequence (Q96SW2 whole entry, looked up): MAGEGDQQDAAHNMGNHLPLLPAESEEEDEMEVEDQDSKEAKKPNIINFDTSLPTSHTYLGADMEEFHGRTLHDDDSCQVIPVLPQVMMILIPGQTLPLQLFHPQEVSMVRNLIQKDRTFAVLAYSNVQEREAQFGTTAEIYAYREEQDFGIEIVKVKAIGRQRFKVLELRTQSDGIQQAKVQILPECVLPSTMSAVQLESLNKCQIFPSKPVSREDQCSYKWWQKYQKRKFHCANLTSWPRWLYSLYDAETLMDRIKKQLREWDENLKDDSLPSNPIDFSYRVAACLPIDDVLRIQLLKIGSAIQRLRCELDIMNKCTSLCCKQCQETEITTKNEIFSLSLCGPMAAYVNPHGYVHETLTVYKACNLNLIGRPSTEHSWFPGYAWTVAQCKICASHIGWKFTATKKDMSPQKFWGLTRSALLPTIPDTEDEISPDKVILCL
methodDescription: PROTAC activity at CRBN/cGAS in human THP-1 cells assessed as induction of cGAS degradation at 10 uM preincubated with compound for 40 hrs followed by HT-DNA stimulation and measured after 8 hrs by Western blot analysis relative to control
Type: cell-based
recordedConditions: time 48.0 hrs
Could you mark each record TRUE if its Activity falls strictly under 20%, and FALSE if it equals or exceeds it?

compound: Cn1ccc(-c2cc(Cl)c(Cl)c3[nH]c4c(c23)CN(C(=O)CNC(=O)CN2CCN(C(=O)COc3cccc5c3C(=O)N(C3CCC(=O)NC3=O)C5=O)CC2)CC4)n1 (stereo unspecified)
groupLabel: TRUE

compound: O=C1CCC(N2C(=O)c3cccc(NCCCCCCCCC(=O)N4CCC(Cn5cc(-c6cc(Cl)c(Cl)c7[nH]c8c(c67)CN(C(=O)CO)CC8)cn5)CC4)c3C2=O)C(=O)N1 (stereo unspecified)
groupLabel: FALSE

compound: Cn1ccc(-c2cc(Cl)c(Cl)c3[nH]c4c(c23)CN(C(=O)CNC(=O)CCC2CCN(C(=O)COc3cccc5c3C(=O)N(C3CCC(=O)NC3=O)C5=O)CC2)CC4)n1 (stereo unspecified)
groupLabel: TRUE

compound: Cn1ccc(-c2cc(Cl)c(Cl)c3[nH]c4c(c23)CN(C(=O)CNC(=O)CCCCCCCCNc2cccc3c2C(=O)N(C2CCC(=O)NC2=O)C3=O)CC4)n1 (stereo unspecified)
groupLabel: FALSE

compound: O=C1CCC(N2C(=O)c3cccc(NCCCCCC(=O)N4CC(Cn5cc(-c6cc(Cl)c(Cl)c7[nH]c8c(c67)CN(C(=O)CO)CC8)cn5)C4)c3C2=O)C(=O)N1 (stereo unspecified)
groupLabel: FALSE

Consider the additional compound presented here.
Prompt: Given Cn1ccc(-c2cc(Cl)c(Cl)c3[nH]c4c(c23)CN(C(=O)CNC(=O)CCN2CCN(C(=O)COc3cccc5c3C(=O)N(C3CCC(=O)NC3=O)C5=O)CC2)CC4)n1 (stereo unspecified) , is recorded Activity strictly lower than 20%?
Completion: TRUE
